# test.context: in acetone, 283.15 K
recorded.endpoint: solubility (mole fraction)

{"columns": ["chemical.smiles", "recorded.endpoint", "numeric.result"],
 "data": [
  ["NC(=O)c1ncn([C@@H]2O[C@H](CO)[C@@H](O)[C@H]2O)n1", "solubility (mole fraction)", "3.77e-05"]
]}

* * *

# test.context: in n-butanol, 288.15 K
recorded.endpoint: solubility (mole fraction)

{"columns": ["chemical.smiles", "recorded.endpoint", "numeric.result"],
 "data": [
  ["NC(=O)c1ncn([C@@H]2O[C@H](CO)[C@@H](O)[C@H]2O)n1", "solubility (mole fraction)", "8.95e-05"]
]}

* * *

# test.context: in formic acid, 308.15 K

{"columns": ["chemical.smiles", "solubility (mole fraction)"],
 "data": [
  ["NC(=O)c1ncn([C@@H]2O[C@H](CO)[C@@H](O)[C@H]2O)n1", 0.104]
]}

* * *

# test.context: in ethanol, 308.15 K
recorded.endpoint: solubility (mole fraction)

{"columns": ["chemical.smiles", "recorded.endpoint", "result"],
 "data": [
  ["NC(=O)c1ncn([C@@H]2O[C@H](CO)[C@@H](O)[C@H]2O)n1", "solubility (mole fraction)", 0.000282]
]}

* * *

# test.context: in DMSO, 318.15 K

{"columns": ["chemical.smiles", "solubility (mole fraction)"],
 "data": [
  ["NC(=O)c1ncn([C@@H]2O[C@H](CO)[C@@H](O)[C@H]2O)n1", 0.11]
]}

* * *

# test.context: in sec-butanol, 288.15 K

{"columns": ["chemical.smiles", "solubility (mole fraction)"],
 "data": [
  ["NC(=O)c1ncn([C@@H]2O[C@H](CO)[C@@H](O)[C@H]2O)n1", "8.47e-05"]
]}

* * *

# test.context: in n-butanol, 283.15 K

{"columns": ["chemical.smiles", "solubility (mole fraction)"],
 "data": [
  ["NC(=O)c1ncn([C@@H]2O[C@H](CO)[C@@H](O)[C@H]2O)n1", "7.44e-05"]
]}

Every entry's value here was drawn from BigSolDB 2.1.
